Read-out: Matrix Metallopeptidase 1 (MMP1), MMP1 (gene 4312)
Test: BSK_hDFCGF_MMP1: BioMAP Diversity Plus: hDFCGF Assay for Matrix Metallopeptidase 1 (MMP1) Biomarker Activity (AID 2283064)
Settings: primary human foreskin fibroblasts; actives raise or lower the signal
Protocol: BSK_hDFCGF is a cell-based, multiplexed-readout assay that uses foreskin fibroblast, a human skin primary cell, with measurements taken at 24 hours after chemical dosing in a 96-well plate.BSK_hDFCGF_MMP1 is an assay component measured in the BSK_hDFCGF assay. It measures MMP-1 antibody related to regulation of gene expression using ELISA technology.Data from the assay component BSK_hDFCGF_MMP1 was analyzed into 1 assay endpoint. […]
Active and inactive are the calls of the source. How the source made its calls: active means hit-call score of the fitted dose curve at least 0.9, where 1 is the maximum; inactive means score below 0.9.
observed.property: AC50

| compound | AC50 |
| --- | --- |
| CC(C)(N=C=O)c1cccc(C(C)(C)N=C=O)c1 | inactive |
| CN(C)C(=O)Nc1ccc(Oc2ccc(Cl)cc2)cc1 | inactive |
| Cc1cc(CCC(=O)OCCOCCOCCOC(=O)CCc2cc(C)c(O)c(C(C)(C)C)c2)cc(C(C)(C)C)c1O | inactive |
| COc1cc(Cl)c(OC)cc1N | inactive |
| CCCCN(CCCC)C(=O)N(CCCC)CCCC | 11.5 µM (active) |
| O=C1OC2(c3ccccc31)c1ccc(O)c(Br)c1Oc1c2ccc(O)c1Br | inactive |

// for each compound below, give its AC50
1. CN(c1nccc(=O)[nH]1)C1CCN(c2nc3ccccc3n2Cc2ccc(F)cc2)CC1
2. COc1ccc(CCN2CCC(Nc3nc4ccccc4n3Cc3ccc(F)cc3)CC2)cc1
3. O=CN1CCOCC1
4. CC(=O)c1c(C)c([N+](=O)[O-])c(C(C)(C)C)c([N+](=O)[O-])c1C
5. CN(C)C(=S)SC(=S)N(C)C
6. CCCCOC(=O)CCCCCCCC(=O)OCCCC
7. C=C(C)[C@H]1CC=C(C)C(=O)C1
8. CCCCCCCCCCCCCCCC(=O)OC/C=C(C)/C=C/C=C(C)/C=C/C1=C(C)CCCC1(C)C

1. inactive
2. inactive
3. inactive
4. inactive
5. 36.2 µM (active)
6. inactive
7. inactive
8. inactive

Where these numbers come from: PubChem BioAssay (EPA / NIEHS)
